Tested on: HOP-92 NSCLC
Assay: NCI tumour cell line growth inhibition, 48 h; in the data active = GI50 below about 0.43 µM; inactive = the rest
Labels: active, inactive

{"columns": ["molecule", "discrete-label"],
 "data": [
  ["CCC(C)[C@H]1O[C@]2(CC[C@@H]1C)C[C@@H]1C[C@@H](C/C=C(\\C)[C@@H](OC3C[C@H](OC)C(O[C@H]4C[C@H](OC)[C@@H](O)[C@H](C)O4)[C@H](C)O3)[C@@H](C)/C=C/C=C3\\CO[C@@H]4[C@H](O)C(C)=C[C@@H](C(=O)O1)[C@]34O)O2 (stereo not given in full)", "inactive"],
  ["O=C(Cc1ccc(/C=C/C(=O)c2ncc[nH]2)cc1)Nc1ccc(F)cc1", "inactive"],
  ["COc1ccc2c(c1)/C(=C\\c1c(-c3cc(OC)ccc3OC)nc3sc(C)cn13)C(=O)N2C", "inactive"],
  ["COc1cc(/C=C\\c2cc(OC)c(OC)c(OC)c2)cc(N/C=C\\C(=O)c2ccc(OC(F)(F)F)cc2)c1OC", "inactive"],
  ["O=c1c2c(=NCCN3CCCC3)cc3c(=O)n(CCCN4CCOCC4)c(=O)c4c(-c5ccc(CN6CCCC6)cc5)cc(c(O)n1CCCN1CCOCC1)c2c4-3", "active"],
  ["COc1ccc(C(c2cc(OC)c(OC)c(OC)c2)n2ccnc2)cc1O (stereo not given)", "inactive"],
  ["N.N.N.N.N.[Co+3].[I-].[N-]=[N+]=[N-]", "inactive"],
  ["CCOC(=O)c1cc(C(=O)c2cc(OC)c(OC)c(OC)c2)n2ncccc12", "inactive"],
  ["Nc1nccc(-c2c(-c3ccc(F)cc3)ncn2C2CCNCC2)n1", "inactive"],
  ["COc1ccc(C2=N[C@@H](Cc3ccccc3)C(=O)Nc3ccsc32)cc1", "inactive"],
  ["CCN1C(=S)N(c2ccccc2)C2NC(=S)N(/N=C/C=C/c3ccccc3OC)C21 (stereo not given)", "inactive"],
  ["O=Nc1ccc(O)c(=O)cc1", "inactive"],
  ["O=S(=O)(NCCCNc1nccc(-c2c(-c3ccc(O)cc3)nc3sccn23)n1)c1ccc(F)cc1", "inactive"],
  ["CC(=O)c1ccc2c(c1)c1cc(C(C)=O)ccc1n2CCNC(C)C", "inactive"],
  ["O=C(Nc1ccc2[nH]nc(-c3ccncc3)c2c1)[C@@H]1CCN(CC(=O)N2CCN(c3ccc(-c4ncccn4)cc3)CC2)C1", "active"]
]}
